target: furin, P09958;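 further: purified furin at 1:10 enzyme:substrate in 50 mM HEPES pH 7.5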
Sequence (P09958 whole entry): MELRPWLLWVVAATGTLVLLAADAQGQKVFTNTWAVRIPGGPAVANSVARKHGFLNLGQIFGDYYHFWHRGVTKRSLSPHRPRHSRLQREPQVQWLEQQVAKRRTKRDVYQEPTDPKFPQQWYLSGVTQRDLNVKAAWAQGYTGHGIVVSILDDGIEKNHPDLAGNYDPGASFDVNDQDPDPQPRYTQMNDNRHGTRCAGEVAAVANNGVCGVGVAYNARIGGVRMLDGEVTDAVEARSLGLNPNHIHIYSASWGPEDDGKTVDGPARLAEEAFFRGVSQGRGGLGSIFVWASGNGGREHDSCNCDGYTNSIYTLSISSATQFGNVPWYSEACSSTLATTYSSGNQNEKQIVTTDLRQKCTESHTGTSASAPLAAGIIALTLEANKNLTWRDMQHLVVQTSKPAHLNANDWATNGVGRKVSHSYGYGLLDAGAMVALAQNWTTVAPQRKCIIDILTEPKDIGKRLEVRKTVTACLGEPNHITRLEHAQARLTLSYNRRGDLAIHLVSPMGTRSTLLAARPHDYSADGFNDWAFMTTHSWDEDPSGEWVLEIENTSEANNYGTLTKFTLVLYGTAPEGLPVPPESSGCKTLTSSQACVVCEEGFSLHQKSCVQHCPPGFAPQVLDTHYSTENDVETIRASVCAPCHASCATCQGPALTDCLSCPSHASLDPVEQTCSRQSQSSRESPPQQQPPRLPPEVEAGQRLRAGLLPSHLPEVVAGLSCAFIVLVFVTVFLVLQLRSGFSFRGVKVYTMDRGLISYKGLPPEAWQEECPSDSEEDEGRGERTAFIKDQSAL
procedure.details: furin cleavage Z-score vs untreated control; higher = more cleavage, active = 3.5 or more, inactive = 1 or less, 8 variable residues between constant flanks
condition: 15 min
Some of the results follow. The true hit rate is not given.
Outcomes: 1 (active), 0 (inactive)

record.sequence: CAASPKGPVIAGNASASA [HC706]
assigned.category: 0
//
record.sequence: CADFSLDPTFAGNASASA [HC892]
assigned.category: 0
//
record.sequence: CARQKRSVSIAGNASASA [FS-2170]
assigned.category: 1
//
record.sequence: CAEITTPCSGAGNASASA [HC1964]
assigned.category: 0
//
record.sequence: CAEYVVCCSMAGNASASA [HC2129]
assigned.category: 0
//
record.sequence: CAVVCCHMSYAGNASASA [HC109]
assigned.category: 0
